- Assayed system: recombinant CD73 (Homo sapiens (Human))
- Experimental protocol: Assay 2: Inhibition of the CD73 enzyme in vitro (0.05 nM CD73, 1 hour 37° C., Malachite Green)
- Format: biochemical
- Applied conditions: 0.05 nM CD73, 50 μM AMP, 1 hour at 37° C.
Parameter measured: IC50 (nM)
Give bare numbers, in nM.

C#C[C@@]1(O)[C@@H](COC(Cc2ccc(-c3cccnc3N)cc2)(C(=O)O)C(=O)O)O[C@@H](n2cnc3c(N)nc(Cl)nc32)[C@@H]1O [Example 197] :: 0.73
C#C[C@@]1(O)[C@@H](CO[C@](Cc2ccc(N3CCCNC3=O)cc2)(C(=O)O)C(=O)OCC)O[C@@H](n2cnc3c(N)nc(Cl)nc32)[C@@H]1O (single isomer, unassigned) [Example 164] :: 261
C#C[C@@]1(O)[C@@H](COC(Cc2ccccc2)(C(=O)O)C(=O)O)O[C@@H](n2cnc3c(N4CC(C)(O)C4)nc(Cl)nc32)[C@@H]1O [Example 47] :: 2
C#C[C@@]1(O)[C@@H](COC(Cc2ccccc2)(C(=O)O)C(=O)O)O[C@@H](n2cnc3c(NC[C@@H](C)O)nc(Cl)nc32)[C@@H]1O [Example 35] :: 4

Turning now to a further record.
Input: Recorded IC50 for C#C[C@@]1(O)[C@@H](CO[C@@H](Cc2ccc(N3CCCNC3=O)cc2)C(=O)O)O[C@@H](n2cnc3c(N)nc(Cl)nc32)[C@@H]1O (single isomer, unassigned) [Example 167] , please?
Output: 139

###

- Test system: Human CD8+ T cells
- Experimental protocol: Reversal of AMP-mediated suppression of CD8+ T cells
- Type: cell-based
- Applied conditions: T-cell, 96 h, 20 μM AMP, 4 days, flow cytometry, read-out: EC50 for CD8+ T cell activation (CD25 expression)
Parameter measured: EC50 (nM)
Numbers only, in nM.

Input: Looking for the measured EC50 of C#C[C@@]1(O)[C@@H](COC(Cc2ccc(N3CCCNC3=O)cc2)(C(=O)O)C(=O)O)O[C@@H](n2cnc3c(N)nc(Cl)nc32)[C@@H]1O [Compound 9] , can you help?
Output: 9.6

###

- Assayed system: recombinant CD73 (Homo sapiens (Human), UniProt P21589)
- Sequence (P21589 27-547): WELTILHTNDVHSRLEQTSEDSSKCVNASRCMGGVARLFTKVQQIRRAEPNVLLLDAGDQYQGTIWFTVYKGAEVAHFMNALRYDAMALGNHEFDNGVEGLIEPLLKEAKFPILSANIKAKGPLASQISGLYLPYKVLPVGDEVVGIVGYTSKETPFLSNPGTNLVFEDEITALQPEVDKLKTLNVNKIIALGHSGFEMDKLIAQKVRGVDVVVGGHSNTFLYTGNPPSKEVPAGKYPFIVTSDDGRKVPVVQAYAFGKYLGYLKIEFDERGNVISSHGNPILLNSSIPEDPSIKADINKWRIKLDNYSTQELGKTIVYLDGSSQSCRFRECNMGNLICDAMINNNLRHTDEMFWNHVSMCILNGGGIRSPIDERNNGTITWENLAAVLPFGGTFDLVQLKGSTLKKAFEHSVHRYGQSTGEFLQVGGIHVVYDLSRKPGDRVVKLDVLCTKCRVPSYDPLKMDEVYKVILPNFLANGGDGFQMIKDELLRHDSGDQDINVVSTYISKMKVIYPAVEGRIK
- Experimental protocol: Assay 2: Inhibition of the CD73 enzyme in vitro (0.05 nM CD73, 1 hour 37° C., Malachite Green)
- Assay type: biochemical
- Applied conditions: 0.05 nM CD73, 50 μM AMP, 1 hour at 37° C.
Parameter measured: IC50 (nM)
Numbers only, in nM.

Sample records with IC50:
C#C[C@@]1(O)[C@@H](COC(Cc2ccccc2)(C(=O)O)C(=O)O)O[C@@H](n2cnc3c(NCc4ccccc4F)nc(Cl)nc32)[C@@H]1O [Example 67] :: 0.8
C#C[C@@]1(O)[C@@H](COC(Cc2ccccc2)(C(=O)O)C(=O)O)O[C@@H](n2cnc3c(NCCOC)nc(Cl)nc32)[C@@H]1O [Example 38] :: 3

Can you give me IC50 for all of these, one by one?
1. C#C[C@@]1(O)[C@@H](COC(Cc2ccccc2)(C(=O)O)C(=O)O)O[C@@H](n2cnc3c(N[C@@H]4CCc5ccccc54)nc(Cl)nc32)[C@@H]1O [Example 69]
2. C#C[C@@]1(O)[C@@H](COC(C(=O)O)C(=O)O)O[C@@H](n2cnc3c(NCc4ccccc4)nc(Cl)nc32)[C@@H]1O [Example 118]
3. C#C[C@@]1(O)[C@@H](COC(Cc2ccccc2)(C(=O)O)C(=O)O)O[C@@H](n2cnc3c(N4CCCCCC4)nc(Cl)nc32)[C@@H]1O [Example 80]

Output:
1: 3; 2: 48; 3: 2

Input: # input compound: C#C[C@@]1(O)[C@@H](COC(Cc2ccc(NCCN(C)CC(=O)O)cc2)(C(=O)O)C(=O)O)O[C@@H](n2cnc3c(N)nc(Cl)nc32)[C@@H]1O [Example 155] ; wanted: its IC50
Output: 2

###

- Assayed system: recombinant CD73 (Homo sapiens (Human))
- Experimental protocol: Assay 1: Inhibition of the CD73 enzyme in vitro (0.5 nM CD73, 30 min room temperature, Malachite Green)
- Assay type: biochemical
- Applied conditions: 0.5 nM CD73, 30 minutes at room temperature
Assignment: determine reported log10 of IC50 for the given compounds.
log10 IC50, µM

C#C[C@@]1(O)[C@@H](COC(C(=O)O)C(=O)N2CCCC2)O[C@@H](n2cnc3c(NC4CCCC4)nc(Cl)nc32)[C@@H]1O (stereo partly drawn) :: -0.75
C[C@@]1(O)[C@@H](COC(Cc2ccc(-c3ccccc3C(=O)O)cc2)(C(=O)O)c2cscn2)O[C@@H](n2cnc3c(N)nc(Cl)nc32)[C@@H]1O (stereo partly drawn) :: 0.78
C#C[C@@]1(O)[C@@H](COC(C(N)=O)C(N)=O)O[C@@H](n2cnc3c(NC4CCCC4)nc(Cl)nc32)[C@@H]1O :: 0.91

Please look at the items below and tell me log10 of IC50 for each one, in order.
1. C#C[C@@]1(O)[C@@H](COC(C(=O)O)S(C)(=O)=O)O[C@@H](n2cnc3c(NC4CCCC4)nc(Cl)nc32)[C@@H]1O (stereo partly drawn)
2. C#C[C@@]1(O)[C@@H](COC(C(=O)OC)P(=O)(O)O)O[C@@H](n2cnc3c(N)nc(Cl)nc32)[C@@H]1O (stereo partly drawn)
3. C#C[C@@]1(O)[C@@H](COC(Cc2ccccc2)(C(=O)O)C(=O)O)O[C@@H](n2cnc3c(NC4CCCC4)nc(Cl)nc32)[C@@H]1O
4. C#C[C@@]1(O)[C@@H](COC(Cc2ccsc2)(C(=O)O)C(=O)O)O[C@@H](n2cnc3c(N)nc(Cl)nc32)[C@@H]1O

Output:
1: 0.67; 2: -1.15; 3: -3.52; 4: -2.74

Can you give me log10 of IC50 for all of these, one by one?
1. C#CCC(OC[C@H]1O[C@@H](n2cnc3c(N)nc(Cl)nc32)[C@H](O)[C@@]1(O)C#C)(C(=O)O)c1cscn1 (stereo partly drawn)
2. C[C@@]1(O)[C@@H](COP(=O)(O)CP(=O)(O)O)O[C@@H](n2cnc3c(NCc4ccccc4)nc(Cl)nc32)[C@@H]1O
3. C#C[C@@]1(O)[C@@H](CO[C@H](C(=O)O)c2csc(-c3ccccc3)n2)O[C@@H](n2cnc3c(N)nc(Cl)nc32)[C@@H]1O (single isomer, unassigned)
4. C#C[C@@]1(O)[C@@H](COC(C(=O)O)C(=O)O)O[C@@H](n2cnc3c(N)nc(Cl)nc32)[C@@H]1O
5. C#C[C@@]1(O)[C@@H](COC(C(=O)NO)c2cscn2)O[C@@H](n2cnc3c(N)nc(Cl)nc32)[C@@H]1O (single isomer, unassigned) [Example 186]

Output:
1. -0.99
2. -1.92
3. -0.58
4. -1.24
5. 0.95

###

- Assayed system: recombinant CD73 (Homo sapiens (Human))
- Experimental protocol: Assay 1: Inhibition of the CD73 enzyme in vitro (0.5 nM CD73, 30 min room temperature, Malachite Green)
- Type: biochemical
- Applied conditions: 0.5 nM CD73, 30 minutes at room temperature
Parameter measured: IC50 (nM)
Numbers only, in nM.

# count of solved cases: 10
C#C[C@@]1(O)[C@@H](COC(C(N)=O)C(=O)O)O[C@@H](n2cnc3c(NC4CCCC4)nc(Cl)nc32)[C@@H]1O (stereo partly drawn) :: 135
C#C[C@@]1(O)[C@@H](CO[C@@](C#N)(Cc2ccccc2)C(=O)O)O[C@@H](n2cnc3c(N)nc(Cl)nc32)[C@@H]1O (single isomer, unassigned) :: 9320
C#C[C@@]1(O)[C@@H](COC(Cc2cccc(C(F)(F)F)c2)(C(=O)O)C(=O)OCC)O[C@@H](n2cnc3c(N)nc(Cl)nc32)[C@@H]1O (stereo partly drawn) :: 273
C#C[C@@]1(O)[C@@H](CO[C@](Cc2ccccc2)(C(=O)O)c2cscn2)O[C@@H](n2cnc3c(NC)nc(Cl)nc32)[C@@H]1O :: 10
C#C[C@@]1(O)[C@@H](COC(Cc2cccc(OC(F)(F)F)c2)(C(=O)O)c2cscn2)O[C@@H](n2cnc3c(N)nc(Cl)nc32)[C@@H]1O (stereo partly drawn) :: 56
C#C[C@@]1(O)[C@@H](CO[C@@](Cc2ccccc2)(C(=O)O)c2cscn2)O[C@@H](n2cnc3c(NC)nc(Cl)nc32)[C@@H]1O :: 134
C#C[C@@]1(O)[C@@H](COC(Cc2cccc(C(=O)O)c2)(C(=O)O)c2cscn2)O[C@@H](n2cnc3c(N)nc(Cl)nc32)[C@@H]1O (stereo partly drawn) :: 24
C#C[C@@]1(O)[C@@H](CO[C@](Cc2ccccc2)(C(=O)O)c2cscn2)O[C@@H](n2cnc3c(N)nc(Cl)nc32)[C@@H]1O (single isomer, unassigned) :: 9
C#C[C@@]1(O)[C@@H](COC(C(=O)O)C(=O)N2CCCC2)O[C@@H](n2cnc3c(N)nc(Cl)nc32)[C@@H]1O (stereo partly drawn) :: 331
C[C@@]1(O)[C@@H](CO[C@@](Cc2ccc(-c3ccccc3)cc2)(C(=O)O)c2cscn2)O[C@@H](n2cnc3c(N)nc(Cl)nc32)[C@@H]1O (single isomer, unassigned) :: 5760

Batch request: IC50 per item, same order as input.
1. C#C[C@@]1(O)[C@@H](COC(C(=O)O)c2csc(C(=O)O)n2)O[C@@H](n2cnc3c(N)nc(Cl)nc32)[C@@H]1O (stereo partly drawn)
2. Nc1nc(Cl)nc2c1ncn2[C@@H]1O[C@H](COC(C(=O)O)C(=O)O)[C@](O)(C#Cc2cc[nH]n2)[C@H]1O
3. C#C[C@@]1(O)[C@@H](COP(=O)(O)CP(=O)(O)O)O[C@@H](n2cnc3c(NCc4ccccc4)nc(Cl)nc32)[C@@H]1O
4. C#C[C@@]1(O)[C@@H](COC(Cc2ccccc2)(C(=O)O)C(=O)O)O[C@@H](n2cnc3c(NC(C)C)nc(Cl)nc32)[C@@H]1O
5. C[C@@]1(O)[C@@H](CO[C@](Cc2ccc(-c3ccccc3)cc2)(C(=O)O)c2cscn2)O[C@@H](n2cnc3c(N)nc(Cl)nc32)[C@@H]1O (single isomer, unassigned)

Output:
1: 236; 2: 18; 3: 4.2; 4: 1.7; 5: 2270
